Target: Bcl-2-like protein 10 (Homo sapiens) (UniProt Q9HD36)
Sequence (Q9HD36 whole entry, looked up): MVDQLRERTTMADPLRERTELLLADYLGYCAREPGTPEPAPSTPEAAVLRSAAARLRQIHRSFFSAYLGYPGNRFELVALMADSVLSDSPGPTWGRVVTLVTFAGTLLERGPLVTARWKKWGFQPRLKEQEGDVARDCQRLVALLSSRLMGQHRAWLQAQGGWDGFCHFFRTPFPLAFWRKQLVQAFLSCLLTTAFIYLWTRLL
Test: TR3 peptide-Bcl-B binding displacers, biochemical primary FP assay, phenotype converters (AID 1240);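 further: 0% = Bcl-B with tracer peptide and DMSO and 100% = tracer peptide lacking Bcl-B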
Settings: GST-Bcl-B / FITC-TR3 peptide fluorescence polarization; stronger effect = higher value; compound at 3.75 mg/L
Hit rate of the full screen: of about 50,000 compounds, about 800 (1.6%) showed an effect of 50% or more. The sample holds strong results, similar compounds and a random draw of the others, so the mix is not that of the screen.

Input smiles: CCN1C(=O)c2cccc3c(NC(=O)c4ccc(C(=O)c5ccccc5)cc4)ccc1c23
Unit of measurement: %
displacement: 101
//
Input smiles: CCN1C(=O)c2cccc3c(NC(=O)c4ccc(Oc5ccccc5)cc4)ccc1c23
Unit of measurement: %
displacement: -14.2
//
Input smiles: O=C(CN1C(=O)c2ccccc2C1=O)Nc1nc(-c2ccccc2)cs1
Unit of measurement: %
displacement: -6.7
//
Input smiles: CCN1C(=O)c2cccc3c(NC(=O)c4ccc(S(=O)(=O)N5CCCCCC5)cc4)ccc1c23
Unit of measurement: %
displacement: 88.2
//
Input smiles: CCOc1ccc(N2C(=O)NC(=O)/C(=C\c3ccc(-c4ccccc4C(=O)O)o3)C2=O)cc1
Unit of measurement: %
displacement: 14.1
//
Input smiles: O=C(Nc1cccc2ccccc12)c1ccc(S(=O)(=O)N2CCCCC2)cc1
Unit of measurement: %
displacement: -8.9
//
Input smiles: CCN1C(=O)c2cccc3c(NC(=O)c4ccc(S(=O)(=O)N5CCOCC5)cc4)ccc1c23
Unit of measurement: %
displacement: 8.7
//
Input smiles: COc1cc(/C=N\n2nnnc2N)ccc1OCc1ccc(F)cc1
Unit of measurement: %
displacement: 10.6
//
Input smiles: CCN1C(=O)c2cccc3c(NC(=O)c4ccc(Cl)s4)ccc1c23
Unit of measurement: %
displacement: 11.6
//
Input smiles: CCN1C(=O)c2cccc3c(S(=O)(=O)N(C)C)ccc1c23
Unit of measurement: %
displacement: 6.6

====

As shown below, each of these molecules has a reported displacement value.
Target: Bcl-2-like protein 10 (Homo sapiens) (UniProt Q9HD36)
Test: TR3 peptide-Bcl-B binding displacers, biochemical primary FP assay, phenotype converters (AID 1240);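 further: 0% = Bcl-B with tracer peptide and DMSO and 100% = tracer peptide lacking Bcl-B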
Details: GST-Bcl-B / FITC-TR3 peptide fluorescence polarization; stronger effect = higher value; compound at 3.75 mg/L
In all, about 50,000 compounds went through this assay and about 800 (1.6%) showed an effect of 50% or more. The list comes from a sample in which strong results are over-represented; it also holds close analogues and randomly drawn compounds.

Input smiles: Cc1ccc(N2C(=O)/C(=C/c3ccc(Oc4ccc([N+](=O)[O-])cn4)cc3)C(=O)NC2=S)c(C)c1
Assay target: Bcl-2-like protein 10 (Homo sapiens) (UniProt Q9HD36)
Unit of measurement: %
displacement: 7.3
--
Input smiles: COc1ccc(/C=C2/SC(=S)N(CCc3ccccc3)C2=O)cc1OC
Assay target: Bcl-2-like protein 10 (Homo sapiens) (UniProt Q9HD36)
Unit of measurement: %
displacement: 105
--
Input smiles: CC(C)NC(=O)C12CC3CC(C1)CC(C(=O)NC(C)C)(C3)C2
Assay target: Bcl-2-like protein 10 (Homo sapiens) (UniProt Q9HD36)
Unit of measurement: %
displacement: 1.3
--
Input smiles: CCN(CC)c1ccc(/C=C2\SC(=S)N(CCc3ccccc3)C2=O)cc1
Assay target: Bcl-2-like protein 10 (Homo sapiens) (UniProt Q9HD36)
Unit of measurement: %
displacement: 86
--
Input smiles: O=C(c1ccc(-c2ccccc2)cc1)N1CCN(Cc2ccc3c(c2)OCO3)CC1
Assay target: Bcl-2-like protein 10 (Homo sapiens) (UniProt Q9HD36)
Unit of measurement: %
displacement: -1.6
--
Input smiles: COc1ccc(N(CC(=O)Nc2cccc(C)c2)S(=O)(=O)c2ccc(C)cc2)c(OC)c1
Assay target: Bcl-2-like protein 10 (Homo sapiens) (UniProt Q9HD36)
Unit of measurement: %
displacement: 3.6
--
Input smiles: O=C(CCN1C(=O)/C(=C/c2ccc(F)cc2)SC1=S)Nc1cc([N+](=O)[O-])ccc1O
Assay target: Bcl-2-like protein 10 (Homo sapiens) (UniProt Q9HD36)
Unit of measurement: %
displacement: 25.6
--
Input smiles: O=C(CCCN1C(=O)/C(=C\c2ccc(F)cc2)SC1=S)Nc1cc([N+](=O)[O-])ccc1O
Assay target: Bcl-2-like protein 10 (Homo sapiens) (UniProt Q9HD36)
Unit of measurement: %
displacement: 114
--
Input smiles: COc1ccc(/C=C2\SC(=Nc3ccc(O)cc3)NC2=O)cc1OC
Assay target: Bcl-2-like protein 10 (Homo sapiens) (UniProt Q9HD36)
Unit of measurement: %
displacement: -6.3
